// data source = patent US12459951B2

Test system: Erk1/2 phosphorylation
Test: Erk1/2 Phosphorylation Assay (western blot), Panc-1
Type: cell-based, human
Details: at 10 μM, * = activation
VALUE_TYPE: % inh of Erk1/2 phosphorylation in Panc-1

Recorded results for 4 compounds are shown here.
Please look up its % inh of Erk1/2 phosphorylation in Panc-1: "COc1ccnc(Nc2nc(-c3nccn3C)nn3cc(-c4ccn(C(F)F)n4)c(C)c23)n1"
D* (85-100% activation)

Please give the result for "COc1ccnc(Nc2nc(-c3nccn3C)nn3cc(-c4ccn(C)n4)c(C)c23)n1.Cl" too.
B* (26-49% activation)

Please give the result for "COc1cccc(-c2cn3nc(-c4nccn4C)nc(N[C@H]4C[C@H](OC)C4)c3c2-c2ccccn2)c1F" too.
0 (0% inhibition)

Please give the result for "COCCO[C@H]1C[C@H](Nc2nc(-c3nccn3C)nn3cc(-c4ccn(C)n4)c(C)c23)C1" too.
B* (26-49% activation)

Now, please, on to the next compound.
Please look up its % inh of Erk1/2 phosphorylation in Panc-1: "CO[C@H]1C[C@H](Nc2nc(-c3nccn3C)nn3cc(-c4cnccc4C)c(-c4ccccc4)c23)C1"
D* (85-100% activation)

====

Tested on: Erk1/2 phosphorylation
Assay: Erk1/2 Phosphorylation Assay (western blot), Panc-1
Type: cell-based, human
Conditions: at 10 μM, * = activation
VALUE_TYPE: % inh of Erk1/2 phosphorylation in Panc-1

Recorded % inh of Erk1/2 phosphorylation in Panc-1 for "COc1cccc(-c2cn3nc(-c4nccn4C)nc(N[C@H]4C[C@@H](OC)C4)c3c2-c2ccccc2)c1C" with Erk1/2 phosphorylation, please?
D (85-100% inhibition)

Please give the result for "COc1ccnc(Nc2nc(-c3nccn3C)nn3cc(-c4ccn(C)n4)c(C(=O)N4CCCC4)c23)c1" too.
D* (85-100% activation)

Please give the result for "COc1cc(Nc2nc(-c3nccn3C)nn3cc(-c4ccccn4)c(C)c23)ncn1" too.
C* (46-84% activation)

Please give the result for "CO[C@H]1C[C@H](Nc2nc(-c3nccn3C)nn3cc(-c4ccc(CN)cc4)c(-c4ccccc4)c23)C1.Cl" too.
B (26-49% inhibition)

***
Recorded % inh of Erk1/2 phosphorylation in Panc-1 for "Cc1c(-c2ccn(C(C)C)n2)cn2nc(-c3nccn3C)nc(Nc3noc(C4CC4)n3)c12" with Erk1/2 phosphorylation, please?
B (26-49% inhibition)

Please give the result for "COc1ccnc(Nc2nc(-c3nccn3C)nn3cc(-c4ccn(CCN)n4)c(C)c23)c1" too.
A (1-25% inhibition)

Please give the result for "Cc1c(-c2ccn(C)n2)cn2nc(-c3nccn3C)nc(Nc3cc(-c4ccccn4)ccn3)c12" too.
C* (46-84% activation)

====

System: KRas wild type
Assay: Ras GTP Binding Domain Inhibition Assay (Ras Superfamily Assay)
Details: 20 μM compound, without SOS
VALUE_TYPE: KRas wild type: % inh.

Please look up its KRas wild type: % inh.: Cc1c(-c2ccn(C(C)C)n2)cn2nc(-c3nccn3C)nc(Nc3nc(C4CC4)no3)c12 [Compound 70]
A (A = 1-25% inhibition)

Please give the result for COc1cccc(-c2cn3nc(-c4nccn4C)nc(N[C@@H]4CC[C@@H](OC)C4)c3c2-c2ccccc2)c1F (racemic) [Compound 43] too.
0 (0 = 0% inhibition)

Please give the result for Cn1ccnc1-c1nc(O)c2c(-c3ccccc3)ccn2n1 [Compound 39] too.
A (A = 1-25% inhibition)
